Experiment: in vitro
Conditions: monkey, CC50 BGM Average
Please use Condition met for CC50 under 60 µM and Condition not met for everything else, ties included.

- CC(C)c1ccc(CN(C(=O)c2ccco2)c2ccccc2)cc1 [Compound 19h]: Condition met
- O=C(c1ccco1)N(Cc1ccc(F)cc1)c1ccccc1 [Compound 19b]: Condition not met
- O=C(c1ccco1)N(Cc1ccc(S(F)(F)(F)(F)F)cc1)c1ccccc1 [Compound 19f]: Condition met
- COc1ccc(N(Cc2ccc(F)cc2)C(=O)c2cccs2)cc1: Condition not met
- O=C(c1ccco1)N(Cc1ccccc1)c1ccccc1 [Compound 19a, N-Benzyl-N-phenylfuran-2-carboxamide]: Condition not met
- COc1ccc(N(Cc2ccc(F)cc2)C(=O)c2ccc[nH]2)cc1: Condition met
- COc1ccc(N(Cc2ccc(F)cc2)C(=O)c2ccccn2)cc1: Condition not met
- COc1ccc(N(Cc2ccc(F)cc2)C(=O)c2cc[nH]c2)cc1 [Compound 12a]: Condition not met
- Cc1ccc(CN(C(=O)c2ccco2)c2ccccc2)cc1 [Compound 19g]: Condition not met
- COc1ccc(N(Cc2ccc(C(F)(F)F)cc2)C(=O)c2ccco2)cc1 [Compound 19e]: Condition met
- O=C(c1ccco1)N(Cc1ccc(C(F)(F)F)cc1)c1ccccc1 [Compound 19d]: Condition not met
- COc1ccc(N(Cc2ccccc2)C(=O)c2ccco2)cc1 [Compound 19c]: Condition not met
- COc1ccc(N(Cc2ccc(F)cc2)C(=O)c2ccco2)cc1: Condition met
- O=C(c1ccco1)N(Cc1ccccc1)c1ccc(C(F)(F)F)cc1 [Compound 19i]: Condition met
- O=C(c1ccc[nH]1)N(Cc1ccc(C(F)(F)F)cc1)c1ccccc1: Condition not met

Numbers sourced from paper PMC7673538.
